molecular target: SpCyk3; assay: SPOT peptide array binding signal intensity (averaged, normalized) (arbitrary units (background-subtracted, floor 0; scale differs between SH3 domains)); higher = stronger binding of the SH3 domain to the peptide
# binarize SPOT peptide array binding signal intensity: threshold 2 inclusive, high side fulfilled, low side not fulfilled

• VQKRKLPLPGSIASA = fulfilled
• NILKRRPLKLEAPSK = not fulfilled
• NGRRRPKFRVQLSGN = fulfilled
• VPPPMQPPPIESSNL = fulfilled
• DLFKPLPEPPTELGR = not fulfilled
• IKTRSVPKIPSIESV = not fulfilled

From: the supplement of paper PMC4466140
